A collection of compounds and their measured pest or weed control at 5 µg/cm2, 500 g/ha
# Tested on: adult cat fleas (Ctenocephalides felis)
# PROCEDURE_DETAILS: Ctenocephalides felis in-vitro contact test, adult cat flea
# Assay type: in vivo
# SETTINGS: 5 μg/cm^2 (=500 g/ha), after 48 hours, read-out: efficacy (fleas dead or moribund)
Report as a plain number; the unit % is understood.

Incoming: # pest or weed control at 5 µg/cm2, 500 g/ha lookup, item CC(NC(=O)c1cc(Cl)cc(OC(F)(F)F)c1)c1nccnc1-n1cc(C(=O)N(C)CC2CC2)cn1 (racemic) [Example I-133]
Outgoing: 100

Incoming: # pest or weed control at 5 µg/cm2, 500 g/ha lookup, item CC(NC(=O)c1cc(C(F)(F)F)cc(C(F)(F)F)c1)c1nccnc1-c1ccc(C(=O)N(C)CC2CC2)cn1 (racemic) [Example I-32]
Outgoing: 100

Incoming: # pest or weed control at 5 µg/cm2, 500 g/ha lookup, item CC(NC(=O)c1cc(Br)cc(C(F)(F)F)c1)c1nccnc1-c1ncc(C(=O)N(C)CC2CC2)s1 (racemic) [Example I-119]
Outgoing: 90

Incoming: # pest or weed control at 5 µg/cm2, 500 g/ha lookup, item CC(NC(=O)c1cc(Br)cc(OC(F)(F)F)c1)c1nccnc1-n1cc(C(=O)N(C)CC2CC2)cn1 (racemic) [Example I-134]
Outgoing: 100

Incoming: # pest or weed control at 5 µg/cm2, 500 g/ha lookup, item CC(NC(=O)c1cc(Cl)cc(S(C)(=O)=O)c1)c1nccnc1-n1cc(C#N)cn1 (racemic) [Example I-103]
Outgoing: 80

Incoming: # pest or weed control at 5 µg/cm2, 500 g/ha lookup, item CC(NC(=O)c1cc(OC(F)(F)F)cc(S(C)(=O)=O)c1)c1nccnc1-c1ncc(C(=O)N(C)CC2CC2)s1 (racemic) [Example I-140]
Outgoing: 90

Incoming: # pest or weed control at 5 µg/cm2, 500 g/ha lookup, item CC(NC(=O)c1cc(C(F)(F)F)cc(C(F)(F)F)c1)c1nccnc1-c1ncc(C(=O)N2CCCOCC2)s1 (racemic) [Example I-68]
Outgoing: 100

Incoming: # pest or weed control at 5 µg/cm2, 500 g/ha lookup, item CC(NC(=O)c1cc(C(F)(F)F)cc(C(F)(F)F)c1)c1nccnc1-c1ncc(C(=O)N2C[C@@H](C)O[C@@H](C)C2)s1 (mixture of isomers) [Example I-66]
Outgoing: 100

Incoming: # pest or weed control at 5 µg/cm2, 500 g/ha lookup, item CCN(C)C(=O)c1cnc(-c2nccnc2[C@H](C)NC(=O)c2cc(C(F)(F)F)cc(C(F)(F)F)c2)s1 [Example I-85]
Outgoing: 100

Incoming: # pest or weed control at 5 µg/cm2, 500 g/ha lookup, item CC(NC(=O)c1cc(C(F)(F)F)cc(C(F)(F)F)c1)c1nccnc1-c1ccc(C(=O)N2CCOCC2)cn1 (racemic) [Example I-34]
Outgoing: 90
